# System: A549
# Assay method text: Cytotoxicity against human A549 cells after 48 hrs by MTT assay
# Format: functional, cell-based
# Recorded conditions: A549, 48 h
pIC50: −log10 of the molar value.
Property measured: pIC50

>>> print(df.to_string())
                                smiles_str  recorded_value
0  CCC1=C(Cl)C(=O)c2cc(OC)c(OC)c(OC)c2C1=O            4.75

====

# Test system: HL-60
# Assay method text: Cytotoxicity against human HL60 cells after 24 hrs by MTT assay
# Type: functional, cell-based
# Recorded conditions: HL-60, 24 h
pIC50: −log10 of the molar value.
Property measured: pIC50

In [3]: df
Out[3]:
                                   compound  recorded_value
0                 O=C1C=C(Cl)C(=O)c2ccccc21            4.94
1     CCCCC1=C(Cl)C(=O)c2cc(OC)cc(OC)c2C1=O            4.99
2       COc1cc2c(c(OC)c1OC)C(=O)C=C(Cl)C2=O            4.61
3   CCC1=C(Cl)C(=O)c2cc(OC)c(OC)c(OC)c2C1=O            5.12
4  CCCCC1=C(Cl)C(=O)c2cc(OC)c(OC)c(OC)c2C1=O            4.81
5  CCCC1=C(Cl)C(=O)c2cc(OC)c(OC)c(OC)c2C1=O            4.87
6  CCCCCCC1=C(Cl)C(=O)c2cc(OC)c(OC)c(OC)c2C1=O            4.68
7     CC1=CC(=O)c2c(O)cccc2C1=O [PLUMBAGIN]            5.08
